Source of measurements: PubChem BioAssay

# testName: MELAS cybrid and Rieske KO viability enhancers – cell-based, MELAS cybrids, Rieske KO mouse fibroblasts, CellTiter-Glo, primary screen (AID 1508586);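 note: z relative to plate mean and SD of compound and empty wells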
# settings: MELAS cybrid survival, low glucose, CellTiter-Glo 48 h; stronger effect = higher value

>  <compound>
C[C@@H]1C(=O)O[C@H]2CC34[C@H]5C[C@@H](C(C)(C)C)C36C(OC(=O)[C@H]6O)O[C@@]4(C(=O)O5)[C@]21O (stereo partly specified)

>  <z-score>
-0.0435

$$$$
>  <compound>
CCc1nc(Cn2c3c(cc(-c4ccccc4C)c2=O)CN(Cc2ccc(O)c(Cl)c2)CC3)no1

>  <z-score>
-0.286

$$$$
>  <compound>
CC(NC(CCc1ccccc1)C(=O)O)C(=O)N1CCCC1C(=O)O (stereo unspecified)

>  <z-score>
0.277

$$$$
>  <compound>
C=C1C(=CC=C2CCC[C@]3(C)C(C(C)CCCC(C)C)CC[C@@H]23)CC(O)CC1O (stereo partly specified)

>  <z-score>
0.162

$$$$
>  <compound>
C[C@]12CCC(=O)C=C1[C@@H]1C[C@@H]1[C@H]1[C@@H]3[C@@H]4C[C@@H]4[C@]4(CCC(=O)O4)[C@@]3(C)CC[C@H]12

>  <z-score>
-0.459

$$$$
>  <compound>
O=C1CN(c2ccc(C(F)(F)F)cn2)CCN1Cc1ccc2c(c1)OCO2

>  <z-score>
0.169

$$$$

---

Entries and their inhibition values follow.
# testName: BT084 cell growth, single and combined drugs, ICGC_MB145, cisplatin and BGB IC40 combos (AID 1671461);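 note: cells exposed to drugs for 96 hours; 0% = vehicle DMSO and 100% = high DMSO full killing control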
# settings: BT084 medulloblastoma cells, drug combinations, single agent, at 5 µM, stronger effect = higher value
readoutType: inhibition (%)

>  <compound>
CC(C)(O)[C@H]1CC[C@@](C)(C2[C@@H](O)C[C@@]3(C)[C@@H]4C[C@H](O)C5C(C)(C)[C@@H](O)CCC56CC46CC[C@]23C)O1 (stereo not given in full)

>  <readoutType>
inhibition

>  <testValue>
-6.41

$$$$
>  <compound>
CC(Oc1cc(-c2cnn(C3CCNCC3)c2)cnc1N)c1c(Cl)ccc(F)c1Cl (stereo not given)

>  <readoutType>
inhibition

>  <testValue>
55.8

$$$$
>  <compound>
COc1nc(N)nc2c1ncn2[C@@H]1O[C@H](CO)[C@@H](O)[C@H]1O

>  <readoutType>
inhibition

>  <testValue>
-18

$$$$
>  <compound>
Nc1ccccc1NC(=O)c1cnccn1

>  <readoutType>
inhibition

>  <testValue>
14.3

$$$$
>  <compound>
CC(C)c1ccc(-c2cc(=O)c3ccccc3o2)cc1

>  <readoutType>
inhibition

>  <testValue>
42.7

$$$$

---

# testName: growth inhibition, single agent and combos, cell-based, chromothripsis tumors, cisplatin or BGB combos (AID 1671450);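 note: cells exposed to compound for four days; 0% = vehicle DMSO and 100% = cell killing by high DMSO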
# settings: HDN33 neuroblastoma cells, measured here: with BGB IC20 combination, at 0.5 µM, stronger effect = higher value
inhibition vs 30%: at or above is rule met, below is rule not met.

>  <molecule>
Nc1nc(NC2CC2)cc(-c2cccc(Cl)c2Cl)n1

>  <className>
rule not met

$$$$
>  <molecule>
CC(C)(C#N)c1ccc(N2C(=O)OCc3cnc4ccc(-c5cnc6ccccc6c5)cc4c32)cc1

>  <className>
rule met

$$$$
>  <molecule>
CC(C=CC(=O)NO)=CC(C)C(=O)c1ccc(N(C)C)cc1 (stereo not given)

>  <className>
rule met

$$$$
>  <molecule>
C[C@@H]1O[C@@H](O[C@@H]2[C@@H](O)[C@H](OCCc3ccc(O)c(O)c3)O[C@H](CO)[C@H]2OC(=O)C=Cc2ccc(O)c(O)c2)[C@H](O)[C@H](O)[C@H]1O

>  <className>
rule not met

$$$$
>  <molecule>
O=C1C(=Cc2cccnc2)C(=O)c2ccccc21

>  <className>
rule not met

$$$$
